Molecular target: CAL PDZ domain (CALP) (UniProt Q9HD26 278-362)
Experiment: fluorescence polarization competition with a labeled peptide
Where no end group is shown, it is not given here.
Endpoint Label: pKi
Note on pKi: it is the negative log10 of concentration, concentration in mol/L.

Name the recorded pKi for Ac-WQVTRV (also called WQVTRV) [kCAL01] . 5.68
